Reported melting point values follow for various compounds

Fill in the blank: the reported melting point of C#CC(O)c1c(F)ccc(-c2ccn3nc(-c4ccc(F)cc4)cc3c2)c1F (racemic) is ____.
151 to 153 °C

// query melting point value for entry C#CC(O)c1cccc(-c2ccn3nc(-c4ccc(F)cc4)cc3c2)c1 (single isomer, unassigned; (-)) [Compound 9]
147 to 149 °C

For C#CC(O)c1cccc(-c2ccn3nc(-c4ccc(F)cc4)cc3c2)c1 (racemic) [Compound 2] , what is its reported melting point?
192 to 194 °C

Recorded melting point for C#CC(C)(O)c1cccc(-c2ccn3nc(-c4ccc(F)cc4)cc3c2)c1 (racemic) [Compound 4] , please?
215 to 217 °C

GET /values?readout=melting point&item= C#CC(C)(O)c1cccc(-c2ccn3nc(-c4ccc(F)cc4)cc3c2)c1 (single isomer, unassigned; (-)) [Compound 11]
122 to 124 °C

Which value of melting point has been reported for C#CC(O)c1cccc(-c2ccn3nc(-c4ccc(F)cc4)cc3c2)c1 (single isomer, unassigned; (+)) [Compound 10] in the records?
139 to 141 °C

Can you look up the measured melting point of CC#CC(O)c1cccc(-c2ccn3nc(-c4ccc(F)cc4)cc3c2)c1 (racemic) for me?
164 to 166 °C

* * *

result.type: melting point

For orientation, consider the following solved cases.
[
  {
    "molecule": "C#CC(C)(O)c1cccc(-c2ccn3nc(-c4ccc(F)cc4)cc3c2)c1 (single isomer, unassigned; (+)) [Compound 12]",
    "result": "126 to 128 °C"
  },
  {
    "molecule": "C#CC(O)c1ccccc1-c1ccn2nc(-c3ccc(F)cc3)cc2c1 (racemic)",
    "result": "104 to 106 °C"
  },
  {
    "molecule": "C#CC(O)c1cccc(-c2ccn3nc(-c4ccccc4F)cc3c2)c1 (racemic)",
    "result": "157 to 159 °C"
  },
  {
    "molecule": "C#CC(O)c1cccc(-c2ccn3nc(-c4ccc(C)cc4)cc3c2)c1 (racemic)",
    "result": "183 to 185 °C"
  }
]

So what's the measured melting point for this one? C#CC(O)c1cccc(-c2ccn3nc(-c4ccc(Cl)cc4)cc3c2)c1 (racemic)
195 to 197 °C

* * *

biological target: mouse Nurr1 receptor (Mus musculus); construct: endogenously expressing the mouse Nurr1 receptor; assay: in vitro activity on N2A cells (8NBRE-luciferase reporter); settings: N2A-8NBRE cells, 24 hours incubation
Sequence (Q06219 whole entry): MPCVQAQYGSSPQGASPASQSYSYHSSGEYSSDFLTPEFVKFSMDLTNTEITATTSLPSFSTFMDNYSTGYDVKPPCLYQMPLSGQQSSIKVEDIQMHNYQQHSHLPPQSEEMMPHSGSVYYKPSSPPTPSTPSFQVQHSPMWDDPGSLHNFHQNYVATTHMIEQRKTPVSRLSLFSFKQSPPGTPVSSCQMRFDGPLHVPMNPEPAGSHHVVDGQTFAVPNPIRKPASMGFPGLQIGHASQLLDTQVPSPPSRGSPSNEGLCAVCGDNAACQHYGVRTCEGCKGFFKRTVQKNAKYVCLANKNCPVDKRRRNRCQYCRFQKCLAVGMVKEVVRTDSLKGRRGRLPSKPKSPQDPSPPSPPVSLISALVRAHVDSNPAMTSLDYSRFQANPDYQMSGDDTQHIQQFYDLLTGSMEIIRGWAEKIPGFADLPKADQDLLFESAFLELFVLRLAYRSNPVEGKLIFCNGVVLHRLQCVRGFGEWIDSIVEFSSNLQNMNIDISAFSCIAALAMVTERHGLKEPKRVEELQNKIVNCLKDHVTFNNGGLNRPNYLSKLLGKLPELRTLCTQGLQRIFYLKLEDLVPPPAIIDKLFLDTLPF
result.type: EC50 (nM)
Expressed in nM, but write only the number.

Look up EC50: C#CC(O)c1cccc(-c2ccn3nc(-c4ccc(F)cc4)cc3c2)c1 (racemic) [Compound 2]
3
